tested_on: recombinant cPLA2 (Homo sapiens)
Construct: purchased US Biological P4074-03R
Sequence (P47712 whole entry): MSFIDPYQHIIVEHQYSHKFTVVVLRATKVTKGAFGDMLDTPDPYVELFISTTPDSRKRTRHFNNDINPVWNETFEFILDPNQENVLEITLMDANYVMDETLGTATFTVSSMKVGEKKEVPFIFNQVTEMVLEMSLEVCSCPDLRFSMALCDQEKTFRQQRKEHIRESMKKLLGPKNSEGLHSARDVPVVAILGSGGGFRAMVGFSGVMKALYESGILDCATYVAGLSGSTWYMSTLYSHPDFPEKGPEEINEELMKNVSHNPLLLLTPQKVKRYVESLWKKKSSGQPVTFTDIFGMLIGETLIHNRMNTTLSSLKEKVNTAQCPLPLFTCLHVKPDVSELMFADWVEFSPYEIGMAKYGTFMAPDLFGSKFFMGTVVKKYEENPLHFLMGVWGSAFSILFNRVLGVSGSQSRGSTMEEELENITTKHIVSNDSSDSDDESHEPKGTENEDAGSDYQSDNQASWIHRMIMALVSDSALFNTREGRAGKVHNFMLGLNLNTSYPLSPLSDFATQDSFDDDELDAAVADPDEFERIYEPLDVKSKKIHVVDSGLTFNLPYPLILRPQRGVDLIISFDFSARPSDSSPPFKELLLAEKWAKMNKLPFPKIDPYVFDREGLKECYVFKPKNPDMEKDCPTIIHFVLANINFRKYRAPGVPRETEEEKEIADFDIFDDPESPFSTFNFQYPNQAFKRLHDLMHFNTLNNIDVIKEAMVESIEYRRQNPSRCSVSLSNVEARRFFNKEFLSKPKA
test_name: EnzChek phospholipase A2 fluorogenic assay (% activity) at 10 μM
Format: biochemical
run_conditions: 10 μM compound
quantity_name: inhibition at 10 µM (%)
Only the number, expressed in %, is required.

Query block: Which inhibition at 10 µM is listed for `CCCCC/C=C\C/C=C\C/C=C\C/C=C\CCCC(=O)Nc1cccc(C(=O)O)c1` ?
Result block: 86.8

Query block: Please look up its inhibition at 10 µM: `CCCCC/C=C\C/C=C\C/C=C\C/C=C\CCCCC(=O)Nc1cccc(C(=O)O)c1`
Result block: 88.5

Query block: Item under review: `CCCCC/C=C\C/C=C\C/C=C\C/C=C\CCCC(=O)Nc1cccc(S(N)(=O)=O)c1` . Reported inhibition at 10 µM?
Result block: 46.1

Query block: # get_value(readout='inhibition at 10 µM', item= `CCCCC/C=C\C/C=C\C/C=C\C/C=C\CCCCC(=O)NCCCCC(=O)O` )
Result block: 84.5

Query block: Suppose we examine the compound `CCCCC/C=C\C/C=C\C/C=C\C/C=C\CCCC(=O)NCCCC(=O)O` ; what inhibition at 10 µM value has been reported?
Result block: 60.3

Query block: Give the measured inhibition at 10 µM of `CCC/C=C\C/C=C\C/C=C\C/C=C\CCCCC(=O)Nc1cccc(C(=O)O)c1` .
Result block: 83.5

Query block: Given the compound `CCCCC/C=C\C/C=C\C/C=C\C/C=C\CCCC(=O)C(F)(F)Cl` , what is its reported inhibition at 10 µM?
Result block: 50.8

Query block: Suppose we examine the compound `CCCCC/C=C\C/C=C\C/C=C\C/C=C\CCCC(=O)Nc1cccc(C(N)=O)c1` ; what inhibition at 10 µM value has been reported?
Result block: 42.5

Query block: What value of measured inhibition at 10 µM is listed for `CCCCC/C=C\C/C=C\C/C=C\C/C=C\CCCC(=O)NCCCCCC(=O)O` ?
Result block: 59.1

Query block: What value of inhibition at 10 µM has been recorded for this entry: `CCCCC/C=C\C/C=C\C/C=C\C/C=C\CCCC(N)=O`
Result block: 39.3

Query block: Name the recorded inhibition at 10 µM for `CCCCC/C=C\C/C=C\C/C=C\C/C=C\CCCC(=O)NCc1ccc(C(=O)O)cc1` .
Result block: 74.2

Query block: Look up inhibition at 10 µM for this compound: `CCCCC/C=C\C/C=C\C/C=C\C/C=C\CCCC(=O)NCCCCC(=O)O`
Result block: 73.3

Query block: Entry `CCC/C=C\C/C=C\C/C=C\C/C=C\CCCCC(=O)NCCCCC(=O)O` has what inhibition at 10 µM?
Result block: 56.4
